Tested on: MOLT-4 leukemia
Assay: NCI tumour cell line growth inhibition, 48 h
measuredQuantity: TGI

Known results for compounds:
1. Cc1cc(N2CCN(C)CC2)nc(NCc2cc(Nc3ccnc4cc(Cl)ccc34)ccc2F)n1
> 100 µM
2. C=C1CC(Cn2ccc(=O)[nH]c2=O)(c2ccc(-c3ccccc3)cc2)OC1=O (stereo not given)
5.26 µM
3. CC(=O)OCCOCNC(=S)N/N=C/c1ccc2ccccc2n1
> 100 µM
4. CC(C)(C)[Si](C)(C)OCC1CCC(n2cnc3c(=O)[nH]cnc32)O1 (stereo not given)
> 100 µM
5. Clc1cc(OCc2nn3c(Cc4ccccc4)nnc3s2)ccc1OCc1nn2c(Cc3ccccc3)nnc2s1
> 100 µM

[in] Report value: TGI, system: MOLT-4 leukemia, compound: O=C(C/C(=N\NC(=O)C[n+]1ccccc1)C(=O)Nc1nc2ccc([N+](=O)[O-])cc2s1)CC(c1ccccc1)c1c(O)c2ccccc2oc1=O (stereo not given)
[out] > 100 µM

[in] Determine reported TGI for Oc1ccc(Cl)cc1-c1[nH]c(=S)nc(-c2ccccc2)c1Cl ; test system: MOLT-4 leukemia.
[out] > 100 µM

[in] Please report the measured TGI for CC(=O)NC1=C(C)C(=O)c2c(nc3n2CCC3OC(=O)c2ccccc2)C1=N (stereo not given) tested on MOLT-4 leukemia.
[out] 5.24 µM

----------
Tested on: MDA-MB-231 breast
Experiment: NCI tumour cell line growth inhibition, 48 h
Items are presented alongside their recorded TGI.

1) COc1ccc(N)c(C(O)CCNC(C)=O)c1 (stereo unspecified)
> 100 µM
2) CC(CN(C)C)C(=O)c1ccccc1C(=O)O (stereo unspecified)
81.6 µM
3) N#Cc1nc(C2CC2)oc1N
> 100 µM
4) CCC[C@H](O)[C@@H](CNc1cc(NC(C)=O)nc(NC(C)=O)n1)N(Cc1ccccc1)Cc1ccccc1
> 100 µM
5) C=C1C(=O)O[C@H]2[C@H]1CC/C(Cn1cc(CNCCc3c[nH]c4ccc(Cl)cc34)nn1)=C\CC[C@@]1(C)O[C@@H]21
16.2 µM

[in] State its TGI: O=c1cc(CO)n(CCc2c[nH]c3ccccc23)cc1O
[out] > 100 µM

[in] Look up and report measured TGI for this entry: CC[C@@]1(OC(=O)CN)C(=O)OCc2c1cc1n(c2=O)Cc2cc3cc4c(cc3nc2-1)OCO4
[out] > 23.7 µM

[in] Fill in reported TGI for this entry: O=C1NCN(c2ccccc2)C12CCN(CCc1ccc3[nH]c(=S)[nH]c3c1)CC2
[out] 41.6 µM

[in] Recall and state the measured TGI for CC1(C)OCC2(CO1)CSCCCSCC1(COC(C)(C)OC1)CSCCCSC2 .
[out] > 100 µM

[in] Give a short answer stating reported TGI for Cc1cc(Cc2cc(C)c(O)c(C)c2)cc(C)c1O .
[out] 38.3 µM

[in] Supply reported TGI belonging to this compound: C[C@]12CCC3c4ccc(O)cc4CC[C@H]3C1CC(=O)N(N)C2=O (stereo partly specified)
[out] > 100 µM

----------
Tested on: SNB-78 CNS
Test: NCI tumour cell line growth inhibition, 48 h
TGI listing for selected compounds.

[in] // Input: O=C(c1ccccc1)C(c1ccccc1)C1(O)C(=O)Nc2ccccc21 (centres undefined) . Output its TGI only.
[out] > 100 µM

[in] Name the recorded TGI of the item C/C=C(\C)c1cc(=O)c2c(C)cc3c(c2o1)C(=O)c1c(O)c(C2CC(C)(N(C)C)C(O)C(C)O2)cc(C2CC(N(C)C)C(O)C(C)O2)c1C3=O (centres undefined) in your answer.
[out] 50.6 µM

[in] State its TGI for this compound: O=S1CSCS1 (centres undefined)
[out] > 100 µM

[in] Return the recorded TGI value; entry: CC1(C)OC(=O)[C@@](C)([C@H](O)c2ccccc2)O1
[out] > 100 µM

----------
Listed next: entries and their corresponding TGI.
System: SNB-19 CNS
Test: NCI tumour cell line growth inhibition, 48 h

Field: example entries. Status: answers known.
1) COc1ccc(C(C#N)NC23CC4CC(CC(C4)C2)C3)cc1OC (centres undefined)
> 100 µM
2) OC(CC(CC(O)(C(F)(F)Cl)C(F)(F)Cl)=NNc1ccccc1)(C(F)(F)Cl)C(F)(F)Cl
> 10 µM
3) Cc1onc(-c2c(F)cccc2Cl)c1-c1ncc(-c2ccc(Cl)cc2)o1
> 100 µM

Turning to the following molecule.
[in] Return the recorded TGI value; entry: COc1cc(/C=N/Nc2ncnc3c2cnn3C(C)C)ccc1O
[out] > 25 µM

----------
Tested on: K-562 leukemia
Test: NCI tumour cell line growth inhibition, 48 h
measuredQuantity: TGI

[in] Fill in reported TGI for this entry: CC(CN(C)C)C(=O)c1ccccc1C(=O)O (stereo not given)
[out] > 100 µM

[in] Provide measured TGI value, entry: CC(C)(C)[Si](C)(C)OCC1CCC(n2cnc3c(=O)[nH]cnc32)O1 (stereo not given)
[out] > 100 µM

[in] Please indicate TGI recorded for Clc1cc(OCc2nn3c(Cc4ccccc4)nnc3s2)ccc1OCc1nn2c(Cc3ccccc3)nnc2s1
[out] > 100 µM

[in] Tell me TGI reported for C=C[C@@]1(C)CCC2(O)C(CCC3C2(C)CCC[C@@]3(C)COC(=O)CC(=O)OC)C1 (stereo not given in full)
[out] 63.5 µM

[in] Consider the compound CCOC(=O)C1=C(C)NC2SC(=O)/C(=C\c3ccccc3Cl)N2C1c1ccccc1 (stereo not given) . State its measured TGI.
[out] > 100 µM

----------
Test system: DU-145 prostate
Test: NCI tumour cell line growth inhibition, 48 h
measuredQuantity: GI50

Example cases with answers are listed next.
1) Oc1c(C(Nc2cccc3ccccc23)c2ccccc2)ccc2cccnc12 (stereo not given)
7.22 µM
2) Cc1csc(/C=N/NC(=O)c2nnn(-c3ccnc4c(C(F)(F)F)cccc34)c2C)c1
> 100 µM
3) O=C(/C=C/C12c3ccccc3C(c3ccccc31)C1C(=O)N(c3ccccc3)C(=O)C12)c1ccc(Cl)cc1 (stereo not given)
1.77 µM
4) COc1cc(/C=N/Nc2ncnc3c2cnn3C(C)C)ccc1O
8.03 µM
5) COC1C(O)C(C)OC(OC2C(Oc3cccc4c(O)c5c(=O)oc6ccc(C)c7c(=O)oc(c34)c5c67)OC(C)C3O[C@H](c4ccccc4)OC32)C1O (stereo not given in full)
0.484 µM
6) Cc1cc2cccnc2c2ncccc12
1.02 µM

[in] For the compound CC1=CC[C@@H]2C(C)(C)C(=O)CC[C@@]2(C)[C@@H]1COc1ccc2ccc(=O)oc2c1 , give its reported GI50.
[out] 23.6 µM

[in] Look up and report measured GI50 for this entry: O=C(COc1ccc(/C=C2\Oc3ccccc3C2=O)cc1)Nc1nccs1
[out] 71 µM

[in] Please indicate GI50 recorded for CN1CCN(c2ccc(-c3ccc4ncc(C#N)c(Nc5ccc(F)c(Cl)c5)c4c3)cc2)CC1
[out] 0.872 µM

[in] Look up and report measured GI50 for this entry: NC(C/[N+]([O-])=N/O)C(=O)O (stereo not given)
[out] 173 µM

----------
System: OVCAR-8 ovarian
Experiment: NCI tumour cell line growth inhibition, 48 h
measuredQuantity: GI50

// below: answered compounds
1) Cc1cc2cccnc2c2ncccc12
0.626 µM
2) [C-]#[O+].[Cl][Sn]([Cl])[Cl].[Cl][Sn]([Cl])[Cl].[Pt].c1ccc([PH+](c2ccccc2)c2ccccc2)cc1.c1ccc([PH+](c2ccccc2)c2ccccc2)cc1
22.5 µM
3) CC(=O)[CH-]C(=O)c1ccccc1.CC(=O)[CH-]C(=O)c1ccccc1.COc1cccc([O-])c1[O-].[Ti+4]
42.4 µM
4) O=C(/C=C/C12c3ccccc3C(c3ccccc31)C1C(=O)N(c3ccccc3)C(=O)C12)c1ccc(Cl)cc1 (stereo unspecified)
1.43 µM
5) Cc1oc2nc[nH]c(=O)c2c1C(=O)/C=C/c1ccc(Cl)cc1
2.67 µM
6) CN1CCN(CCCOc2cccc3nc(Nc4ccc(Cl)c(F)c4)ccc23)CC1
2.02 µM
7) CCOC(=O)C1=C(C)NC2SC(=O)/C(=C\c3ccccc3Cl)N2C1c1ccccc1 (stereo unspecified)
> 100 µM
8) CC1=CC[C@@H]2C(C)(C)C(=O)CC[C@@]2(C)[C@@H]1COc1ccc2ccc(=O)oc2c1
5.69 µM

[in] Identify GI50 associated with the compound COc1ccc(C[n+]2c3ccccc3n3c4ccc(N)cc4ccc32)c(OC)c1OC
[out] 6.48 µM

[in] Determine from records and report GI50 for COc1ccc2c(c1)[C@]1(C[C@H]1c1ccc3c(/C=C/c4ccc(CN5C[C@@H](C)O[C@@H](C)C5)cc4)n[nH]c3c1)C(=O)N2
[out] 5.06 µM

[in] Return reported GI50. Input compound: COc1ccc(-c2nn(-c3ccc(NC(=O)c4ccc(Cl)c(C(F)(F)F)c4)cc3)cc2-c2ccncc2)cc1Cl
[out] 2.37 µM

[in] Fill in reported GI50 for this entry: O=S(=O)(Nc1cc(Br)c(O)c2ccccc12)c1ccc(F)cc1
[out] 2.78 µM

[in] Write down GI50 measured for item O=C(COc1ccc(/C=C2\Oc3ccccc3C2=O)cc1)Nc1nccs1
[out] > 100 µM

[in] Output measured GI50 for this item: N#CC(C#N)=Cc1c(-c2ccccc2)[nH]c2ccccc12
[out] 5.75 µM

[in] Tell us which GI50 value is on record for Oc1c(C(Nc2cccc3ccccc23)c2ccccc2)ccc2cccnc12 (stereo unspecified)
[out] 3.22 µM

[in] Could you please provide reported GI50 for CN(C)c1ccc(-c2ccc(-c3ccc(C(=N)N)c(F)c3)s2)cc1 ? Thanks!
[out] 2.23 µM

Source: PubChem BioAssay (NCI)
